Values were extracted from patent EP4570800A1.

So I've got a bunch of compounds here, and I need their S: solubility values.
assay: Dynamic solubility in water, SGF, FaSSIF and FeSSIF; details: H2O, 24 hours, 37°C, solid feed concentration 10 mg/mL; 1440 min
Structures can show the parent of a compound that is named as a salt.
Enter the number, and then the unit.

What does the data say about its S: solubility? Entry: Cc1nc(N[C@H](C)c2cccc(S(F)(F)(F)(F)F)c2)c2cn(C3(CF)CC3)c(=O)cc2n1 [Crystal form A of ethanesulfonate salt] 10.08 mg/mL

What does the data say about its S: solubility? Entry: Cc1nc(N[C@H](C)c2cccc(S(F)(F)(F)(F)F)c2)c2cn(C3(CF)CC3)c(=O)cc2n1 [Crystal form B of citrate salt] 3.68 mg/mL

What does the data say about its S: solubility? Entry: Cc1nc(N[C@H](C)c2cccc(S(F)(F)(F)(F)F)c2)c2cn(C3(CF)CC3)c(=O)cc2n1 [Crystal form A of fumarate salt] 0.61 mg/mL

What does the data say about its S: solubility? Entry: Cc1nc(N[C@H](C)c2cccc(S(F)(F)(F)(F)F)c2)c2cn(C3(CF)CC3)c(=O)cc2n1 [Crystal form A of methanesulfonate salt] 9.92 mg/mL

* * *

So I've got a bunch of compounds here, and I need their HPLC results Purity (area%) values.
experiment: Solid state stability (XRPD and HPLC); type: physicochemical; conditions: 40°C/75%RH/open, 1 week
Structures can show the parent of a compound that is named as a salt.

What does the data say about its HPLC results Purity (area%)? Entry: Cc1nc(N[C@H](C)c2cccc(S(F)(F)(F)(F)F)c2)c2cn(C3(CF)CC3)c(=O)cc2n1 [Crystal form B of citrate salt] 99.01 area%

What does the data say about its HPLC results Purity (area%)? Entry: Cc1nc(N[C@H](C)c2cccc(S(F)(F)(F)(F)F)c2)c2cn(C3(CF)CC3)c(=O)cc2n1 [Crystal form A of ethanesulfonate salt] 99.29 area%

What does the data say about its HPLC results Purity (area%)? Entry: Cc1nc(N[C@H](C)c2cccc(S(F)(F)(F)(F)F)c2)c2cn(C3(CF)CC3)c(=O)cc2n1 [Crystal form A of methanesulfonate salt] 99.26 area%

What does the data say about its HPLC results Purity (area%)? Entry: Cc1nc(N[C@H](C)c2cccc(S(F)(F)(F)(F)F)c2)c2cn(C3(CF)CC3)c(=O)cc2n1 [Crystal form A of fumarate salt] 98.70 area%

* * *

assay: Dynamic solubility in water, SGF, FaSSIF and FeSSIF; conditions: FaSSIF, 4 hours, 37°C, solid feed concentration 10 mg/mL; 240 min
Where a name gives a salt, the structure may show the parent alone.
Measurement kind: S: solubility (µg/mL)
// note: answer is a bare numeric in µg/mL

What does the data say about its S: solubility? Entry: Cc1nc(N[C@H](C)c2cccc(S(F)(F)(F)(F)F)c2)c2cn(C3(CF)CC3)c(=O)cc2n1 [Crystal form A of fumarate salt] 320

What does the data say about its S: solubility? Entry: Cc1nc(N[C@H](C)c2cccc(S(F)(F)(F)(F)F)c2)c2cn(C3(CF)CC3)c(=O)cc2n1 [Crystal form A of methanesulfonate salt] 1610

What does the data say about its S: solubility? Entry: Cc1nc(N[C@H](C)c2cccc(S(F)(F)(F)(F)F)c2)c2cn(C3(CF)CC3)c(=O)cc2n1 [Crystal form A of ethanesulfonate salt] 1610

What does the data say about its S: solubility? Entry: Cc1nc(N[C@H](C)c2cccc(S(F)(F)(F)(F)F)c2)c2cn(C3(CF)CC3)c(=O)cc2n1 [Crystal form B of citrate salt] 1180

* * *

So I've got a bunch of molecules here, and I need their pH values.
assay: Dynamic solubility in water, SGF, FaSSIF and FeSSIF; settings: pH value of the filtrate; H2O, 4 hours
Structures can show the parent of a compound that is named as a salt.

What does the data say about its pH? Entry: Cc1nc(N[C@H](C)c2cccc(S(F)(F)(F)(F)F)c2)c2cn(C3(CF)CC3)c(=O)cc2n1 [Crystal form A of ethanesulfonate salt] 3.1

What does the data say about its pH? Entry: Cc1nc(N[C@H](C)c2cccc(S(F)(F)(F)(F)F)c2)c2cn(C3(CF)CC3)c(=O)cc2n1 [Crystal form A of methanesulfonate salt] 3.5

What does the data say about its pH? Entry: Cc1nc(N[C@H](C)c2cccc(S(F)(F)(F)(F)F)c2)c2cn(C3(CF)CC3)c(=O)cc2n1 [Crystal form A of fumarate salt] 4.2

What does the data say about its pH? Entry: Cc1nc(N[C@H](C)c2cccc(S(F)(F)(F)(F)F)c2)c2cn(C3(CF)CC3)c(=O)cc2n1 [Crystal form B of citrate salt] 3.5

* * *

test: Dynamic solubility in water, SGF, FaSSIF and FeSSIF; settings: pH value of the filtrate; SGF, 4 hours
Where a name gives a salt, the structure may show the parent alone.
Measurement kind: pH
// no unit string in output, number only

What does the data say about its pH? Entry: Cc1nc(N[C@H](C)c2cccc(S(F)(F)(F)(F)F)c2)c2cn(C3(CF)CC3)c(=O)cc2n1 [Crystal form B of citrate salt] 2.6

What does the data say about its pH? Entry: Cc1nc(N[C@H](C)c2cccc(S(F)(F)(F)(F)F)c2)c2cn(C3(CF)CC3)c(=O)cc2n1 [Crystal form A of methanesulfonate salt] 1.8

What does the data say about its pH? Entry: Cc1nc(N[C@H](C)c2cccc(S(F)(F)(F)(F)F)c2)c2cn(C3(CF)CC3)c(=O)cc2n1 [Crystal form A of fumarate salt] 2.0

What does the data say about its pH? Entry: Cc1nc(N[C@H](C)c2cccc(S(F)(F)(F)(F)F)c2)c2cn(C3(CF)CC3)c(=O)cc2n1 [Crystal form A of ethanesulfonate salt] 1.5

* * *

assay: Human liver microsome stability test; format: in vitro ADME; details: human liver microsomes
Measurement kind: half-life at 1 µM (h)
// note: answer is a bare numeric in h

What does the data say about its half-life at 1 µM? Entry: Cc1nc(N[C@H](C)c2cccc(S(F)(F)(F)(F)F)c2)c2cn(C3(CF)CC3)c(=O)cc2n1 12.8

* * *

So I've got a bunch of compounds here, and I need their pH values.
assay: Dynamic solubility in water, SGF, FaSSIF and FeSSIF; settings: pH value of the filtrate; FeSSIF, 4 hours
Structures can show the parent of a compound that is named as a salt.
// no unit string in output, number only

What does the data say about its pH? Entry: Cc1nc(N[C@H](C)c2cccc(S(F)(F)(F)(F)F)c2)c2cn(C3(CF)CC3)c(=O)cc2n1 [Crystal form A of fumarate salt] 4.8

What does the data say about its pH? Entry: Cc1nc(N[C@H](C)c2cccc(S(F)(F)(F)(F)F)c2)c2cn(C3(CF)CC3)c(=O)cc2n1 [Crystal form A of methanesulfonate salt] 4.8

What does the data say about its pH? Entry: Cc1nc(N[C@H](C)c2cccc(S(F)(F)(F)(F)F)c2)c2cn(C3(CF)CC3)c(=O)cc2n1 [Crystal form A of ethanesulfonate salt] 4.8

What does the data say about its pH? Entry: Cc1nc(N[C@H](C)c2cccc(S(F)(F)(F)(F)F)c2)c2cn(C3(CF)CC3)c(=O)cc2n1 [Crystal form B of citrate salt] 4.6

* * *

assay: Dynamic solubility in water, SGF, FaSSIF and FeSSIF; settings: pH value of the filtrate; FaSSIF, 4 hours
Structures can show the parent of a compound that is named as a salt.
So I've got a bunch of molecules here, and I need their pH values.
// no unit string in output, number only

What does the data say about its pH? Entry: Cc1nc(N[C@H](C)c2cccc(S(F)(F)(F)(F)F)c2)c2cn(C3(CF)CC3)c(=O)cc2n1 [Crystal form A of fumarate salt] 4.6

What does the data say about its pH? Entry: Cc1nc(N[C@H](C)c2cccc(S(F)(F)(F)(F)F)c2)c2cn(C3(CF)CC3)c(=O)cc2n1 [Crystal form A of ethanesulfonate salt] 4.2

What does the data say about its pH? Entry: Cc1nc(N[C@H](C)c2cccc(S(F)(F)(F)(F)F)c2)c2cn(C3(CF)CC3)c(=O)cc2n1 [Crystal form A of methanesulfonate salt] 4.4

What does the data say about its pH? Entry: Cc1nc(N[C@H](C)c2cccc(S(F)(F)(F)(F)F)c2)c2cn(C3(CF)CC3)c(=O)cc2n1 [Crystal form B of citrate salt] 3.9

* * *

experiment: Dynamic solubility in water, SGF, FaSSIF and FeSSIF; settings: SGF, 1 hour, 37°C, solid feed concentration 10 mg/mL; 60 min
Where a name gives a salt, the structure may show the parent alone.
Measurement kind: S: solubility (µg/mL)
// note: answer is a bare numeric in µg/mL

What does the data say about its S: solubility? Entry: Cc1nc(N[C@H](C)c2cccc(S(F)(F)(F)(F)F)c2)c2cn(C3(CF)CC3)c(=O)cc2n1 [Crystal form A of ethanesulfonate salt] 10420

What does the data say about its S: solubility? Entry: Cc1nc(N[C@H](C)c2cccc(S(F)(F)(F)(F)F)c2)c2cn(C3(CF)CC3)c(=O)cc2n1 [Crystal form A of fumarate salt] 1960

What does the data say about its S: solubility? Entry: Cc1nc(N[C@H](C)c2cccc(S(F)(F)(F)(F)F)c2)c2cn(C3(CF)CC3)c(=O)cc2n1 [Crystal form A of methanesulfonate salt] 9760

What does the data say about its S: solubility? Entry: Cc1nc(N[C@H](C)c2cccc(S(F)(F)(F)(F)F)c2)c2cn(C3(CF)CC3)c(=O)cc2n1 [Crystal form B of citrate salt] 9130
